B1: ATE1 (parent)
chain: YGSFHQQYWLDGKIIAVGVIDILP

Variants of: B1
Experiment: protein stability index of a GFP-peptide fusion (GPS, HEK-293T) (PSI 1-6); higher = more stable;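 further: lentivirally expressed fusions sorted by FACS into six bins by GFP to DsRed ratio, PSI derived from sequencing read proportions per bin multiplied by bin number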
Conditions: c terminus: a fixed tail appended
measure: protein stability index

>  <change>
P24G

>  <measuredValue>
3.18

$$$$
>  <change>
D11F

>  <measuredValue>
3.33

$$$$
>  <change>
G2N

>  <measuredValue>
4.75

$$$$
>  <change>
L23P

>  <measuredValue>
2.72

$$$$
>  <change>
I14G

>  <measuredValue>
2.26

$$$$
>  <change>
V17N

>  <measuredValue>
2.82

$$$$
>  <change>
W9C

>  <measuredValue>
2.17

$$$$
>  <change>
G18P

>  <measuredValue>
2.39

$$$$
>  <change>
D21R

>  <measuredValue>
3.36

$$$$
>  <change>
S3P

>  <measuredValue>
2.19

$$$$
>  <change>
G18F

>  <measuredValue>
2.53

$$$$
>  <change>
D11G

>  <measuredValue>
1.06

$$$$
>  <change>
G2K

>  <measuredValue>
2.49

$$$$
>  <change>
K13E

>  <measuredValue>
2.45

$$$$
>  <change>
A16S

>  <measuredValue>
1.87

$$$$
>  <change>
G18I

>  <measuredValue>
3.47

$$$$
>  <change>
Y8F

>  <measuredValue>
3.62

$$$$
>  <change>
A16M

>  <measuredValue>
2

$$$$
>  <change>
I20R

>  <measuredValue>
2.48

$$$$
>  <change>
I15D

>  <measuredValue>
2.53

$$$$
>  <change>
I15R

>  <measuredValue>
1.91

$$$$
>  <change>
G18R

>  <measuredValue>
3.77

$$$$
